# Test system: 324938-238-R-J1-PDC complex spheroid viability;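 also: spheroids also contain HUVEC and human MSCs and agents combined with iadademstat; spheroids exposed to agents for 7 days before readout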
# run-description: Anticancer human tumor 324938-238-R-J1-PDC patient-derived bladder carcinoma cell line growth inhibition; active = viability on the fitted dose curve at most 10% of control; inactive = the rest
# test-settings: second compound 1 µM; first compound 0.00949 µM
# Source text: Multicellular complex tumor spheroid response to LSD1 Inhibitor Iadademstat in combination with a variety of drugs and investigational agents in selected tumor cell lines The current study was undertaken to assess response to LSD1 inhibitors in combination with standard-of-care drugs and investigational agents in solid tumor complex spheroid models as well as in the K-562 leukemia. […] Compounds. […] If the clinical Cmax for an agent had not been determined, the highest concentration tested was 10 microM. […]
Classes to choose from: TRUE = active, FALSE = inactive

Below, 5 compounds whose answers are already recorded.
| compound | assigned-class |
| --- | --- |
| CCN(c1cc(-c2ccc(CN3CCOCC3)cc2)cc(C(=O)NCc2c(C)cc(C)[nH]c2=O)c1C)C1CCOCC1 + NC1CC1c1ccc(-c2cccc(O)c2)cc1 | FALSE |
| O=C(C=Cc1cccc(S(=O)(=O)Nc2ccccc2)c1)NO + NC1CC1c1ccc(-c2cccc(O)c2)cc1 | FALSE |
| CCc1c2c(nc3ccc(O)cc13)-c1cc3c(c(=O)n1C2)COC(=O)[C@]3(O)CC + NC1CCC(NC2CC2c2ccccc2)CC1 | TRUE |
| CCN(c1cc(-c2ccc(CN3CCOCC3)cc2)cc(C(=O)NCc2c(C)cc(C)[nH]c2=O)c1C)C1CCOCC1 + NC1CCC(NC2CC2c2ccccc2)CC1 | FALSE |
| Nc1ccn(C2OC(CO)C(O)C2(F)F)c(=O)n1 (stereo not drawn) + NC1CCC(NC2CC2c2ccccc2)CC1 | TRUE |

# fetch the recorded call for NS(=O)(=O)OCC1CC(n2ccc3c(NC4CCc5ccccc54)ncnc32)CC1O (stereo not drawn) + NC1CCC(NC2CC2c2ccccc2)CC1 here FALSE

# fetch the recorded call for O=C(C=Cc1cccc(S(=O)(=O)Nc2ccccc2)c1)NO + NC1CCC(NC2CC2c2ccccc2)CC1 here FALSE

# fetch the recorded call for Nc1ncn(C2CC(O)C(CO)S2)c(=O)n1 (stereo not drawn) + NC1CC1c1ccc(-c2cccc(O)c2)cc1 here FALSE

These measurements were taken from PubChem BioAssay AID1918935.
